Assay: Pharmacokinetic assessments in plasma, phase I/Ib study
Type: in vivo, human
Conditions: human, plasma, oral, 800 mg, 800 mg BID (fed), C2D1; geometric mean; read-out: t1/2 (converted)
Method: Complete PK assessments were performed during dose escalation on Day 1 of Cycle 1 and 2 and pre-dose at other time points (pre-dose on Day 8 and Day 15 of Cycle 1 and 2, Day 1 and Day 15 of Cycle 3 and 4 and pre-dose on Cycle 5 and beyond). In the dose expansion phase, samples were collected pre-dose on Day 1 from Cycle 1 to Cycle 8. […]
EXPERIMENTAL READOUT: half-life (h)
Numbers only, in h.

Challenge: Query: half-life; subject: CC[C@H](Nc1ncnc2[nH]cnc12)c1oc2ccccc2c(=O)c1-c1cccc(F)c1
Response given: 2.8

----------
test: Pharmacokinetic assessments in plasma, phase I/Ib study; assay type: in vivo, human; details: human, plasma, oral, 800 mg, 800 mg BID, C2D1; median
EXPERIMENTAL READOUT: Tmax

Challenge: Look at this compound and give its reported Tmax. CC[C@H](Nc1ncnc2[nH]cnc12)c1oc2ccccc2c(=O)c1-c1cccc(F)c1
Response given: 2.1 h

----------
assay: Pharmacokinetic assessments in plasma, phase I/Ib study; assay type: in vivo, human; conditions: human, plasma, oral, 800 mg, 800 mg BID, C1D1; geometric mean; read-out: AUC(0-τ)
EXPERIMENTAL READOUT: AUC
Report field: quantity (unit follows the number).

Challenge: // query AUC value for entry CC[C@H](Nc1ncnc2[nH]cnc12)c1oc2ccccc2c(=O)c1-c1cccc(F)c1
Response given: 16.4 µg·h/mL

----------
assay: Pharmacokinetic assessments in plasma, phase I/Ib study; format: in vivo, human; conditions: human, plasma, oral, all cohorts; read-out: Median t1/2 (converted)
EXPERIMENTAL READOUT: half-life (h)
Give bare numbers, in h.

Challenge: Consider the compound shown here: CC[C@H](Nc1ncnc2[nH]cnc12)c1oc2ccccc2c(=O)c1-c1cccc(F)c1 [Tenalisib] What is its recorded half-life?
Response given: 2.28

----------
experiment: Pharmacokinetic assessments in plasma, phase I/Ib study; assay type: in vivo, human; settings: human, plasma, oral, 400 mg, 400 mg BID, C1D1; geometric mean
EXPERIMENTAL READOUT: Cmax (ng/mL)
Answers are plain numbers, in ng/mL.

Challenge: Given the molecule CC[C@H](Nc1ncnc2[nH]cnc12)c1oc2ccccc2c(=O)c1-c1cccc(F)c1 , what is its reported Cmax?
Response given: 2200

----------
test: Pharmacokinetic assessments in plasma, phase I/Ib study; assay type: in vivo, human; conditions: human, plasma, oral, 400 mg, 400 mg BID, C2D1; geometric mean; read-out: t1/2 (converted)
EXPERIMENTAL READOUT: half-life (h)
Numbers only, in h.

Challenge: What half-life value was documented for this molecule, CC[C@H](Nc1ncnc2[nH]cnc12)c1oc2ccccc2c(=O)c1-c1cccc(F)c1 [Tenalisib] ?
Response given: 2

----------
test: Pharmacokinetic assessments in plasma, phase I/Ib study; type: in vivo, human; settings: human, plasma, oral, 200 mg, 200 mg BID, C1D1; geometric mean; read-out: t1/2 (converted)
EXPERIMENTAL READOUT: half-life (h)
Answers are plain numbers, in h.

Challenge: Could you tell me which half-life is on file for CC[C@H](Nc1ncnc2[nH]cnc12)c1oc2ccccc2c(=O)c1-c1cccc(F)c1 ?
Response given: 1.6

----------
assay: Pharmacokinetic assessments in plasma, phase I/Ib study; type: in vivo, human; conditions: human, plasma, oral, 800 mg, 800 mg BID, C1D1; median
EXPERIMENTAL READOUT: Tmax (h)
One number for each entry, in h.

Challenge: Entry CC[C@H](Nc1ncnc2[nH]cnc12)c1oc2ccccc2c(=O)c1-c1cccc(F)c1 has what Tmax?
Response given: 1.1

----------
assay: Pharmacokinetic assessments in plasma, phase I/Ib study; type: in vivo, human; settings: human, plasma, oral, 800 mg, 800 mg BID, C1D1; geometric mean
EXPERIMENTAL READOUT: Cmax (ng/mL)
One number for each entry, in ng/mL.

Challenge: // returns reported Cmax for input CC[C@H](Nc1ncnc2[nH]cnc12)c1oc2ccccc2c(=O)c1-c1cccc(F)c1
Response given: 4000

----------
experiment: Pharmacokinetic assessments in plasma, phase I/Ib study; type: in vivo, human; settings: human, plasma, oral, 800 mg, 800 mg BID, C2D1; geometric mean; read-out: AUC(0-τ)
EXPERIMENTAL READOUT: AUC

Challenge: Which AUC reading was recorded for the molecule CC[C@H](Nc1ncnc2[nH]cnc12)c1oc2ccccc2c(=O)c1-c1cccc(F)c1 [Tenalisib] ?
Response given: 16200 ng·h/mL

----------
assay: Pharmacokinetic assessments in plasma, phase I/Ib study; type: in vivo, human; conditions: human, plasma, oral, 400 mg, 400 mg BID, C1D1; geometric mean; read-out: AUC(0-τ)
EXPERIMENTAL READOUT: AUC (ng·h/mL)
Answers are plain numbers, in ng·h/mL.

Challenge: Bench note: what AUC did CC[C@H](Nc1ncnc2[nH]cnc12)c1oc2ccccc2c(=O)c1-c1cccc(F)c1 show?
Response given: 6420

----------
experiment: Pharmacokinetic assessments in plasma, phase I/Ib study; assay type: in vivo, human; conditions: human, plasma, oral, 800 mg, 800 mg BID, C1D1; geometric mean; read-out: t1/2 (converted)
EXPERIMENTAL READOUT: half-life
A complete answer gives the number followed by the unit.

Challenge: Request the reported half-life associated with CC[C@H](Nc1ncnc2[nH]cnc12)c1oc2ccccc2c(=O)c1-c1cccc(F)c1
Response given: 2.6 h

----------
assay: Pharmacokinetic assessments in plasma, phase I/Ib study; type: in vivo, human; conditions: human, plasma, oral, 200 mg, 200 mg BID, C2D1; median
EXPERIMENTAL READOUT: Tmax (min)
Answers are plain numbers, in min.

Challenge: Please give the measured Tmax for this compound: CC[C@H](Nc1ncnc2[nH]cnc12)c1oc2ccccc2c(=O)c1-c1cccc(F)c1 [Tenalisib]
Response given: 30

----------
assay: Pharmacokinetic assessments in plasma, phase I/Ib study; assay type: in vivo, human; settings: human, plasma, oral, 800 mg, 800 mg BID (fed), C2D1; median
EXPERIMENTAL READOUT: Tmax

Challenge: For the compound CC[C@H](Nc1ncnc2[nH]cnc12)c1oc2ccccc2c(=O)c1-c1cccc(F)c1 , what Tmax is on record?
Response given: 1.1 h

----------
assay: Pharmacokinetic assessments in plasma, phase I/Ib study; assay type: in vivo, human; details: human, plasma, oral, 800 mg, 800 mg BID, C1D1; geometric mean
EXPERIMENTAL READOUT: AUC(0-inf) (ng·h/mL)
One number for each entry, in ng·h/mL.

Challenge: Form field: reported AUC(0-inf) of CC[C@H](Nc1ncnc2[nH]cnc12)c1oc2ccccc2c(=O)c1-c1cccc(F)c1
Response given: 17400

----------
test: Pharmacokinetic assessments in plasma, phase I/Ib study; format: in vivo, human; conditions: human, plasma, oral, 200 mg, 200 mg BID, C2D1; geometric mean
EXPERIMENTAL READOUT: AUC(0-inf) (ng·h/mL)
Answers are plain numbers, in ng·h/mL.

Challenge: I would be grateful if you could share the reported AUC(0-inf) for CC[C@H](Nc1ncnc2[nH]cnc12)c1oc2ccccc2c(=O)c1-c1cccc(F)c1 .
Response given: 4020

----------
assay: Pharmacokinetic assessments in plasma, phase I/Ib study; format: in vivo, human; settings: human, plasma, oral, all cohorts; read-out: t1/2 range
EXPERIMENTAL READOUT: half-life

Challenge: For CC[C@H](Nc1ncnc2[nH]cnc12)c1oc2ccccc2c(=O)c1-c1cccc(F)c1 , what is its reported half-life?
Response given: 1.6 to 2.8 h

----------
experiment: Pharmacokinetic assessments in plasma, phase I/Ib study; type: in vivo, human; conditions: human, plasma, oral, 800 mg, 800 mg BID (fed), C2D1; geometric mean
EXPERIMENTAL READOUT: Cmax
Give me the value, and tack the unit on after it.

Challenge: Sample CC[C@H](Nc1ncnc2[nH]cnc12)c1oc2ccccc2c(=O)c1-c1cccc(F)c1 [Tenalisib] — what was its Cmax?
Response given: 4170 ng/mL

----------
assay: Pharmacokinetic assessments in plasma, phase I/Ib study; assay type: in vivo, human; conditions: human, plasma, oral, 800 mg, 800 mg BID (fed), C1D1; geometric mean; read-out: AUC(0-τ)
EXPERIMENTAL READOUT: AUC (ng·h/mL)
Answers are plain numbers, in ng·h/mL.

Challenge: Request the reported AUC associated with CC[C@H](Nc1ncnc2[nH]cnc12)c1oc2ccccc2c(=O)c1-c1cccc(F)c1 [Tenalisib]
Response given: 13600

----------
experiment: Pharmacokinetic assessments in plasma, phase I/Ib study; type: in vivo, human; details: human, plasma, oral, 800 mg, 800 mg BID, C2D1; geometric mean
EXPERIMENTAL READOUT: AUC(0-inf) (ng·h/mL)
Answers are plain numbers, in ng·h/mL.

Challenge: Which AUC(0-inf) is listed for CC[C@H](Nc1ncnc2[nH]cnc12)c1oc2ccccc2c(=O)c1-c1cccc(F)c1 ?
Response given: 17200

Value source: paper PMC7463651
